The values you see were collected from ChEMBL document CHEMBL3433997.

- Tested on: Hexose transporter 1 (Plasmodium falciparum)
- Test description: ST_JUDE_LEISH: Cytotoxicity at 2uM final concentration against transgenic Leishmania Mexicana promastigotes LmPfHT that are glucose transport deficient and complemented with the Plasmodium falciparum hexose transporter. Activity is measured by DNA content using SYBR green in vitro
- Assay type: functional
Overview of reported inhibition across a group of molecules:
Endpoint label: inhibition (%)

In [3]: df
Out[3]:
                                    molecule                                 tested_on  endpoint_label  u  quantitative_readout
 0  O=C(Nc1cccc(-c2ccc(CN3CCC(O)CC3)cc2)c1)c1cccc(Cl)c1  Hexose transporter 1 (Plasmodium falciparum)      inhibition  %                  3.03
 1  CN1CCN(C(C(=O)NCc2cc(Cl)cc(Cl)c2)c2ccc(Nc3cccc(C(F)(F)F)c3)cc2)CC1 (configuration not stated)  Hexose transporter 1 (Plasmodium falciparum)      inhibition  %                 -2.61
 2  O=C(c1cccc(-c2cccc(-c3nc4cc(F)ccc4[nH]3)c2)c1)N1CCCCC1CN1CCC(O)C1 (configuration not stated)  Hexose transporter 1 (Plasmodium falciparum)      inhibition  %                 -0.32
 3  CC1CN(c2cc(=O)n(Cc3ccc(NC(=O)Nc4ccc(-c5ccccc5)cc4)cc3)cn2)CC(C)N1 (configuration not stated)  Hexose transporter 1 (Plasmodium falciparum)      inhibition  %                  1.47
 4  O=C(Nc1ccc(C(=O)N2CCN(CCN3CCN(c4cccc(C(F)(F)F)c4)CC3)CC2)cc1)c1ccc(OC(F)(F)F)cc1  Hexose transporter 1 (Plasmodium falciparum)      inhibition  %                  0.14
 5  FC(F)(F)c1ccc2[nH]c(-c3ccc(-c4ccc(CNCc5cnn(-c6ccccc6)n5)cc4)cc3)nc2c1  Hexose transporter 1 (Plasmodium falciparum)      inhibition  %                  0.52
 6  O=C(NC1CCCCC1)N(Cc1cccc(-c2ccc(CNCc3ccc4c(c3)OCO4)cc2)c1)C1CCN(Cc2ccccc2)CC1  Hexose transporter 1 (Plasmodium falciparum)      inhibition  %                  5.99
 7  Cc1cc(C)c(NC(=O)N2CCCN(CCCCCNC(=O)/C=C/c3ccc(Cl)c(Cl)c3)CC2)c(C)c1  Hexose transporter 1 (Plasmodium falciparum)      inhibition  %                  2.95
 8  COC(=O)c1cccc(CNCc2cccc(-c3ccc(-c4nc5cc(C(F)(F)F)ccc5[nH]4)cc3)c2)c1  Hexose transporter 1 (Plasmodium falciparum)      inhibition  %                  3.53
 9  COc1cc(C=C(C2=NC(=O)CS2)c2nc3cccnc3n2C)ccc1O  Hexose transporter 1 (Plasmodium falciparum)      inhibition  %                  5.56
10  COc1cccc2cc(C(=O)N[C@@H](CC(C)C)C(=O)N[C@H](C=NN3CCCC3=O)Cc3ccccc3)oc12  Hexose transporter 1 (Plasmodium falciparum)      inhibition  %                  5.52
11  Oc1ccc(CCCNc2nc(NCc3cccc4ccccc34)nc(NC3CCNCC3)n2)cc1  Hexose transporter 1 (Plasmodium falciparum)      inhibition  %                  3.07
12  O=C(c1cccc(Br)c1)N1CCN(c2ccc([N+](=O)[O-])c(NC3CC3)c2)CC1  Hexose transporter 1 (Plasmodium falciparum)      inhibition  %                  4.63
13  COc1cc(NC(=O)C(c2ccc(Cl)cc2)C(C)C)cc(OC)c1 (configuration not stated)  Hexose transporter 1 (Plasmodium falciparum)      inhibition  %                  2.55
14  COc1ccc(S(=O)(=O)N2CCCc3ccc(Br)cc32)cc1N1CCN(C(=O)C(Cl)(Cl)Cl)CC1  Hexose transporter 1 (Plasmodium falciparum)      inhibition  %                  2.99
15  C=CCn1c(Sc2ccc(C#N)c([N+](=O)[O-])c2)nnc1-c1cc(OC)cc(OC)c1  Hexose transporter 1 (Plasmodium falciparum)      inhibition  %                  13.4
16  O=C(Cn1c(SCc2cccc(F)c2F)cc(=O)c2ccccc21)N(CCCn1ccnc1)Cc1ccc(-c2ccc(C(F)(F)F)cc2)cc1  Hexose transporter 1 (Plasmodium falciparum)      inhibition  %                  1.44
17  N#Cc1ccc(N/C(=N\c2cccc(Cl)c2Cl)NC2Cc3ccccc3C2)c(O)c1  Hexose transporter 1 (Plasmodium falciparum)      inhibition  %                  2.84
18  FC(F)(F)COc1ccc2ccccc2c1CNCCCCCCNCc1c(OCC(F)(F)F)ccc2ccccc12  Hexose transporter 1 (Plasmodium falciparum)      inhibition  %                  0.57
19  O=C(NCc1cccc(C(F)(F)F)c1)C(c1cc2ccccc2o1)N1CCN(C(c2ccccc2)c2ccccc2)CC1 (configuration not stated)  Hexose transporter 1 (Plasmodium falciparum)      inhibition  %                  2.33
20   Cc1nc2ccc(-c3nc4cc(N)ccc4[nH]3)cc2[nH]1  Hexose transporter 1 (Plasmodium falciparum)      inhibition  %                    10
21   Cc1onc(-c2c(F)cccc2Cl)c1C(=O)Nc1ccccc1I  Hexose transporter 1 (Plasmodium falciparum)      inhibition  %                  2.24
22  CCCc1cc(C(C)=O)ccc1OCCCON1C(=N)N=C(N)NC1(C)C  Hexose transporter 1 (Plasmodium falciparum)      inhibition  %                  29.3
23  CCN(CC)CCNc1nccc(N(C)c2ccc(NC(=O)Nc3cc(C(F)(F)F)ccc3F)cc2)n1  Hexose transporter 1 (Plasmodium falciparum)      inhibition  %                  2.93
24  N#Cc1cccc(COC(=O)C2=C(COc3ccccc3Cl)NC(=O)NC2c2c[nH]c3cnccc23)c1 (configuration not stated)  Hexose transporter 1 (Plasmodium falciparum)      inhibition  %                  6.63
25  CCc1ccccc1N1CCN(CCCC(=O)c2ccc(NC(=O)c3cc(Cl)cc(Cl)c3)cc2)CC1  Hexose transporter 1 (Plasmodium falciparum)      inhibition  %                  4.43
26               CCCCCCc1cnc2nc(N)nc(N)c2c1C  Hexose transporter 1 (Plasmodium falciparum)      inhibition  %                    10
27  COc1cc2nc(N3CCC(CNC(=O)c4ccc(-c5ccccc5)cc4)CC3)nc(N)c2cc1OC  Hexose transporter 1 (Plasmodium falciparum)      inhibition  %                  1.28
28  COc1ccc(C(=O)NCc2ccccc2-c2ccc(C(C)(C)C)cc2)cc1O  Hexose transporter 1 (Plasmodium falciparum)      inhibition  %                  5.39
29                   N=C(N)NCCCC(=O)NCC(N)=O  Hexose transporter 1 (Plasmodium falciparum)      inhibition  %                  8.67
30  COc1cc(F)c2ncc(Cl)c([C@H](O)CN3CCC(NCc4cc5c(cn4)OCCO5)CC3)c2c1  Hexose transporter 1 (Plasmodium falciparum)      inhibition  %                  7.47
31  Cc1[nH]c(-c2ccc(F)cc2)cc1C(=O)NC1CCN(Cc2ccccc2)CC1  Hexose transporter 1 (Plasmodium falciparum)      inhibition  %                  3.23
32  O=C(Nc1ccc(Cn2nc(Cl)c(N3CCCNCC3)cc2=O)cc1)Nc1ccc(-c2ccccc2)cc1  Hexose transporter 1 (Plasmodium falciparum)      inhibition  %                  15.5
33  CC(=O)Nc1ccc(CN(Cc2cccc(OC(C)(C)C)c2)Cc2ccc3c(c2)OCCO3)cc1  Hexose transporter 1 (Plasmodium falciparum)      inhibition  %                  2.67
34  Cc1cc(C(=O)NCc2ccc(-c3c(C)noc3C)cc2)n(-c2ccc(Cl)cc2)n1  Hexose transporter 1 (Plasmodium falciparum)      inhibition  %                  7.89
35  O=C(/C=C/c1ccc(Cl)c(Cl)c1)NCCCCCN1CCC(NC(=O)Nc2ccc(F)cc2F)CC1  Hexose transporter 1 (Plasmodium falciparum)      inhibition  %                  2.88
36  CN1CCC(NCc2cccc(-c3ccc(S(=O)(=O)NCCN4CCCC4)s3)c2)CC1  Hexose transporter 1 (Plasmodium falciparum)      inhibition  %                  5.43
